Target: human type 1 glycine transporter (GlyT1) (Homo sapiens)
Construct: Used in the experiment were T98G cells (glioma cells) developing a human type 1 glycine transporter (GlyT1); endogenous in cells; host or cells: T98G human glioma cells
Assay: Glycine uptake inhibition experiment ([3H] glycine uptake in T98G cells)
Format: cell-based
Settings: [3H] glycine 250 nM, 15 min, room temperature, read-out: IC50 (glycine uptake inhibiting activity)
Could you please report measured pIC50 for the items listed next?
In simple prose, pIC50 is minus the logarithm base ten of a concentration in moles per litre.

Prompt line: Recall the recorded pIC50 for CCn1cnc(C(=O)N(Cc2ccc(F)c(C(F)(F)F)c2)C2CCOCC2)n1 [Compound 45] with human type 1 glycine transporter (GlyT1) (Homo sapiens) and state it.
Response line: 7.49

Prompt line: Request - read-out pIC50 | tested on human type 1 glycine transporter (GlyT1) (Homo sapiens) | compound Cn1cnc(C(=O)N(Cc2cccc(OC(F)F)c2)C2CCOCC2)n1 [Compound 67]
Response line: 7.37

Prompt line: Short answer please: pIC50, human type 1 glycine transporter (GlyT1) (Homo sapiens), entry Cc1ccc(-c2cc(CN(C(=O)c3cn(C)cn3)C3CCOCC3)ccc2F)cc1 [Compound 105]
Response line: 7.79

Prompt line: Notebook: pull reported pIC50 for human type 1 glycine transporter (GlyT1) (Homo sapiens), entry CCOc1cccc(-c2cc(CN(C(=O)c3ncn(C)n3)C3CCOCC3)ccc2F)c1 [Compound 91]
Response line: 7.54

Prompt line: Under human type 1 glycine transporter (GlyT1) (Homo sapiens): pIC50 value of Cn1cnc(C(=O)N(Cc2ccc(F)c(-c3ccc(F)c(Cl)c3)c2)C2CCOCC2)n1 [Compound 86] ?
Response line: 7.67

Prompt line: GET /values?readout=pIC50&system=human type 1 glycine transporter (GlyT1) (Homo sapiens)&item= Cn1cnc(C(=O)N(Cc2ccc(F)c(-c3ccccc3)c2)C2CCOCC2)n1 [Compound 59]
Response line: 7.90

====

Biological target: human type 1 glycine transporter (GlyT1) (Homo sapiens, UniProt P48067)
Construct: Used in the experiment were T98G cells (glioma cells) developing a human type 1 glycine transporter (GlyT1); endogenous in cells; host or cells: T98G human glioma cells
Sequence (P48067 1-706): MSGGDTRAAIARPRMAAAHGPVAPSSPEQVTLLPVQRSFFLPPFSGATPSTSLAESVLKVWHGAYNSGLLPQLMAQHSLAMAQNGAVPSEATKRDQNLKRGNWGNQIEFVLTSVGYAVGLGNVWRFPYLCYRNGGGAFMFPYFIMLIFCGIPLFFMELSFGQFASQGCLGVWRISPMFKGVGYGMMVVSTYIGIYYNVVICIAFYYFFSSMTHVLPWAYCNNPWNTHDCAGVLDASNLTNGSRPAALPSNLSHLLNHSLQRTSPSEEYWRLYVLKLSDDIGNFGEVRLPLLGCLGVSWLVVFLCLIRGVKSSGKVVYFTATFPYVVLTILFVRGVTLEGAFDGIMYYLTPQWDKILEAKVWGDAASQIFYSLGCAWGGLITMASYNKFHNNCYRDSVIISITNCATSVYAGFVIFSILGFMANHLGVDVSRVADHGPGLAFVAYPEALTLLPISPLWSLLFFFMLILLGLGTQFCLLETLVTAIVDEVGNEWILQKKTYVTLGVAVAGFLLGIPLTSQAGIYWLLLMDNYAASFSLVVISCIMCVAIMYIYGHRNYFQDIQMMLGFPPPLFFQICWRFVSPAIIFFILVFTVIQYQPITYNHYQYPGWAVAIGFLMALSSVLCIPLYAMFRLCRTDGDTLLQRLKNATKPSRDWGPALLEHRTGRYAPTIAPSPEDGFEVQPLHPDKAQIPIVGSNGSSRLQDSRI
Test: Glycine uptake inhibition experiment ([3H] glycine uptake in T98G cells)
Format: cell-based
Details: [3H] glycine 250 nM, read-out: IC50 (glycine uptake inhibiting activity)
pIC50: −log10 of the molar value.
property-name: pIC50

Prompt line: Give pIC50 (human type 1 glycine transporter (GlyT1) (Homo sapiens, UniProt P48067)) of the following molecule: CCOc1cccc(-c2cc(CN(C(=O)c3ncn(C)n3)C3CCOCC3)ccc2F)c1 [Compound 91]
Response line: > 7.00

Prompt line: Under human type 1 glycine transporter (GlyT1) (Homo sapiens, UniProt P48067): pIC50 value of O=C(c1nc[nH]n1)N(Cc1cccc(Cl)c1)C1CCOCC1 [Compound 28] ?
Response line: ≤ 6.00

Prompt line: Enter reported pIC50 observed with human type 1 glycine transporter (GlyT1) (Homo sapiens, UniProt P48067) for O=C(c1cn(C2CC2)cn1)N(Cc1cccc(OC(F)(F)F)c1)C1CCOCC1 [Compound 12]
Response line: ≤ 6.00

Prompt line: Record lookup: for human type 1 glycine transporter (GlyT1) (Homo sapiens, UniProt P48067), what pIC50 belongs to O=C(c1nc[nH]n1)N(Cc1cccc(OC(F)(F)F)c1)C1CCOCC1 [Compound 19] ?
Response line: ≤ 6.00

Prompt line: Enter reported pIC50 observed with human type 1 glycine transporter (GlyT1) (Homo sapiens, UniProt P48067) for Cn1cnc(C(=O)N(Cc2ccc(F)c(-c3ccc(F)cc3)c2)C2CCOCC2)c1 [Compound 103]
Response line: > 7.00

Prompt line: Lab note: need pIC50 with human type 1 glycine transporter (GlyT1) (Homo sapiens, UniProt P48067) for entry COCCn1cnc(C(=O)N(Cc2cccc(OC(F)(F)F)c2)C2CCOCC2)c1 [Compound 20] , please look it up.
Response line: ≤ 6.00

Prompt line: Report pIC50 for Cn1cnc(C(=O)N(C2CCOCC2)C(CO)Cc2cccc(OC(F)(F)F)c2)c1 (stereo not drawn) [Compound 109] tested on human type 1 glycine transporter (GlyT1) (Homo sapiens, UniProt P48067).
Response line: > 7.00

Prompt line: Requested read-out pIC50, target or system human type 1 glycine transporter (GlyT1) (Homo sapiens, UniProt P48067), entry O=C(c1cn(CC(F)(F)F)cn1)N(Cc1cccc(OC(F)(F)F)c1)C1CCOCC1 [Compound 14]
Response line: ≤ 6.00

Prompt line: Report pIC50 for Cn1cnc(C(=O)N(Cc2ccc(F)c(-c3cccc(CCO)c3)c2)C2CCOCC2)c1 [Compound 99] tested on human type 1 glycine transporter (GlyT1) (Homo sapiens, UniProt P48067).
Response line: > 7.00

Prompt line: Request: pIC50, test system human type 1 glycine transporter (GlyT1) (Homo sapiens, UniProt P48067), entry Cn1cnc(C(=O)N(C2CCOCC2)C(c2ccccc2)c2ccccc2)c1 [Compound 108]
Response line: ≤ 6.00

Prompt line: Notebook: pull reported pIC50 for human type 1 glycine transporter (GlyT1) (Homo sapiens, UniProt P48067), entry Cn1cnc(C(=O)N(Cc2ccc(F)c(Br)c2)C2CCOCC2)n1 [Compound 57]
Response line: > 7.00

Prompt line: API: value(readout= pIC50, system= human type 1 glycine transporter (GlyT1) (Homo sapiens, UniProt P48067), query= Cn1cnc(C(=O)N(Cc2cccc(Cl)c2)C2CCOCC2)c1 [Compound 15] )
Response line: > 7.00
